- protocol description: Quantitative High-Throughput drug screen in 47 multiple myeloma cell lines against the NCATS MIPE library collection: KMS34_JCRB cell viability assay (AID 1918985); further: nearly all actives have a fitted effect of over 40% in size
- measurement context: KMS34 myeloma viability, CellTiter-Glo ATP luminescence, 48 h; series mostly up to 45.8 µM
Inconclusive results are not listed. Active and inactive are the calls of the source. The call rests on the fitted dose curve; in most records, active means well fitted cell-killing curve with a large enough effect; inconclusive means small, poorly fitted or top-dose-only effect, or effect the other way; inactive means no such curve, though single readings can be large or run the other way.
Classes used: 1.0 = active, 0.0 = inactive

compound: Cc1onc(-c2ccccc2Cl)c1C(=O)N[C@@H]1C(=O)N2[C@@H]1SC(C)(C)[C@@H]2C(=O)O
cat: 0.0
//
compound: Cc1cccc(Nc2ccncc2S(=O)(=O)NC(=O)NC(C)C)c1
cat: 0.0
//
compound: Cc1cc(NS(=O)(=O)c2ccc(N)cc2)no1
cat: 0.0
//
compound: COCCCOc1cc(C[C@@H](C[C@H](N)[C@@H](O)C[C@H](C(=O)NCC(C)(C)C(N)=O)C(C)C)C(C)C)ccc1OC
cat: 0.0
//
compound: COC(=O)Nc1nc2ccc(C(=O)c3ccccc3)cc2[nH]1
cat: 1.0
//
compound: CCN1CCCC1CNC(=O)c1cc(S(N)(=O)=O)ccc1OC (stereo not drawn)
cat: 0.0
//
compound: CCCOc1ccc(C(=O)OCCN(CC)CC)cc1N
cat: 0.0
//
compound: C[C@@H]1CN(c2c(F)c(N)c3c(=O)c(C(=O)O)cn(C4CC4)c3c2F)C[C@H](C)N1
cat: 0.0
//
compound: CCC(=O)O[C@]1(C(=O)SCF)[C@H](C)C[C@H]2[C@@H]3C[C@H](F)C4=CC(=O)C=C[C@]4(C)[C@@]3(F)[C@@H](O)C[C@@]21C
cat: 0.0
//
compound: COc1ccc2c(c1)c(CC(=O)OCC(=O)O)c(C)n2C(=O)c1ccc(Cl)cc1
cat: 0.0
//
compound: CCN[C@H]1C[C@H](C)S(=O)(=O)c2sc(S(N)(=O)=O)cc21
cat: 0.0
//
compound: COc1ccccc1OCC(O)COC(N)=O (stereo not drawn)
cat: 0.0
//
compound: CCc1cc(C(N)=S)ccn1
cat: 0.0
